Several reports have described Ki for Histamine H3 receptor (Rattus norvegicus, UniProt Q9QYN8); a selection of those results is presented here.
READOUT LABEL: Ki (nM)

Observe how each entry below is paired with its result.
Task: What does the data say about its Ki? Entry: CCCCCC(=O)c1ccc(OCCCN2CCN(C(=O)CC)CC2)cc1
Output: 3.16

Task: Ok, now O=C1c2ccc(-c3cccc(C(F)(F)F)c3)cc2CCN1CCN1CCCC1
Output: 182

Task: Ok, now CCCCCC(=O)c1ccc(OCCCN2CCN(C(=O)NC(C)C)CC2)cc1
Output: 9.55

Task: Ok, now C[C@@H](NC(=O)c1ccsc1)C(=O)N1CCN(CCCOc2ccc(-c3noc(-c4ccccc4)n3)c(F)c2)CC1
Output: 4.2

Task: Ok, now COCCS(=O)(=O)c1ccc(-c2ccc(CCN3CCC[C@@H]3C)cc2)cc1
Output: 13.2

(I) O=C1C[C@@H](N2CCN(CCCOc3ccc(C(=O)C4CC4)cc3)CC2)N1
(II) C[C@@H]1CCCN1CCCOc1ccc(C(=O)CN2CCC(F)(F)CC2)cc1
(III) O=S(=O)(Oc1ccc(-c2cnc(SCCc3c[nH]cn3)[nH]2)cc1)c1ccccc1
(IV) COCCC[C@H](c1ccc(-c2ccc(CN3CCCCC3)cc2)cc1)N1CCC[C@@H]1C
Task: Sort entries by Ki from minimum to maximum value. Lab note: final answer is the ordered label list.
Output: IV, III, I, II
(IV: 1.48 nM, III: 2.95 nM, I: 4.37 nM, II: 43 nM)
